Tested on: LNCaP
assay-explanation: SRB colorimetric assay of cell growth and viability, LNCaP
Assay type: cell-based, human
assay-conditions: 48 hours exposure; read-out: LC50 LN-caP
Where a SMILES comes first, the peptide text is derived from it. Bridges are numbered along the chain shown (N, C = ends). [ ]: non-standard residue; d: D form. The star is where a group is joined. d(aThr) = C[C@@H](O)[C@@H](N)C(=O)O; Hexanoyl(5-Me) = CC(C)CCCC(=O)*; dCha = N[C@H](CC1CCCCC1)C(=O)O; Orn = NCCC[C@H](N)C(=O)O; Dhb = C/C=C(\N)C(=O)O

compound: C/C=C1\NC(=O)[C@H](Cc2ccccc2)NC(=O)[C@@H](CC2CCCCC2)NC(=O)[C@@H](CC2CCCCC2)NC(=O)[C@H](NC(=O)[C@@H](CC2CCCCC2)NC(=O)[C@H](CCCN)NC(=O)[C@H]2CCCN2C(=O)[C@H](NC(=O)[C@@H](NC(=O)[C@@H](NC(=O)[C@H](NC(=O)CCCC(C)C)C(C)C)[C@@H](C)O)C(C)C)C(C)C)[C@@H](C)OC(=O)[C@H](C(C)C)NC1=O [Compound 11, [D-Cha^4, D-Cha^5, D-Cha^7]-KF] ({Hexanoyl(5-Me)}-[dV]TV[dV][dP][Orn][dCha][d(aThr)][dCha][dCha]F[Dhb]V; ester 8-C)
CC50: 3.01 µM

###

System: PANC-1
assay-explanation: SRB colorimetric assay of cell growth and viability, PANC-1
Format: cell-based, human
assay-conditions: 48 hours exposure, SRB
Hi! Just check whether GI50 is below 2000 nM. Below gives MET, equal or above gives NOT MET.

molecule: C/C=C1\NC(=O)[C@H](Cc2ccccc2)NC(=O)[C@@H](C(C)C)NC(=O)[C@@H]([C@@H](C)CC)NC(=O)[C@H](NC(=O)[C@H](NC(=O)[C@H](CCCNC(=O)C(F)(F)F)NC(=O)[C@H]2CCCN2C(=O)[C@H](NC(=O)[C@@H](NC(=O)[C@@H](NC(=O)[C@H](NC(=O)CC[C@@H](C)CC)C(C)C)[C@@H](C)O)C(C)C)C(C)C)[C@@H](C)CC)[C@@H](C)OC(=O)[C@H](C(C)C)NC1=O
answer-label: NOT MET
--
molecule: C/C=C1\NC(=O)[C@H](Cc2ccccc2)NC(=O)[C@@H](C(C)C)NC(=O)[C@@H]([C@@H](C)CC)NC(=O)[C@H](NC(=O)[C@H](NC(=O)[C@H](CCCN)NC(=O)[C@H]2CCCN2C(=O)[C@H](NC(=O)[C@@H](NC(=O)[C@@H](NC(=O)[C@H](NC(=O)CC[C@@H](C)CC)C(C)C)[C@@H](C)OC(=O)C(F)(F)F)C(C)C)C(C)C)[C@@H](C)CC)[C@@H](C)OC(=O)[C@H](C(C)C)NC1=O
answer-label: NOT MET
--
molecule: C/C=C1\NC(=O)[C@H](Cc2ccc(F)cc2)NC(=O)[C@@H](C(C)C)NC(=O)[C@@H]([C@@H](C)CC)NC(=O)[C@H](NC(=O)[C@H](NC(=O)[C@H](CCCN)NC(=O)[C@H]2CCCN2C(=O)[C@H](NC(=O)[C@@H](NC(=O)[C@@H](NC(=O)[C@H](NC(=O)CC[C@@H](C)CC)C(C)C)[C@@H](C)O)C(C)C)C(C)C)[C@@H](C)CC)[C@@H](C)OC(=O)[C@H](C(C)C)NC1=O [Compound 74, [Phe(4-F)^3, (4S)-MeHex^14]-KF]
answer-label: MET
--
molecule: C/C=C1\NC(=O)[C@@H](Cc2ccccc2)NC(=O)[C@H](C(C)C)NC(=O)[C@H]([C@H](C)CC)NC(=O)[C@@H](NC(=O)[C@@H](NC(=O)[C@@H](CCCN)NC(=O)[C@@H]2CCCN2C(=O)[C@@H](NC(=O)[C@H](NC(=O)[C@H](NC(=O)[C@@H](NC(=O)CCCC(C)C)C(C)C)[C@H](C)O)C(C)C)C(C)C)[C@H](C)CC)[C@H](C)OC(=O)[C@@H](C(C)C)NC1=O
answer-label: NOT MET
--
molecule: C/C=C1\NC(=O)[C@H](Cc2ccccc2)NC(=O)[C@@H](C(C)C)NC(=O)[C@@H]([C@@H](C)CC)NC(=O)[C@H](NC(=O)[C@H](NC(=O)[C@H](CCCC[N+](C)(C)C)NC(=O)[C@H]2CCCN2C(=O)[C@H](NC(=O)[C@@H](NC(=O)[C@@H](NC(=O)[C@H](NC(=O)CC[C@@H](C)CC)C(C)C)[C@@H](C)O)C(C)C)C(C)C)[C@@H](C)CC)[C@@H](C)OC(=O)[C@H](C(C)C)NC1=O [Compound 93, [N^ε(Me)3-Lys^8, (4S)-MeHex^14]-KF]
answer-label: MET
--
molecule: C/C=C1\NC(=O)[C@H](Cc2c(F)c(F)c(F)c(F)c2F)NC(=O)[C@@H](C(C)C)NC(=O)[C@@H]([C@@H](C)CC)NC(=O)[C@H](NC(=O)[C@H](NC(=O)[C@H](CCCN)NC(=O)[C@H]2CCCN2C(=O)[C@H](NC(=O)[C@@H](NC(=O)[C@@H](NC(=O)[C@H](NC(=O)CC[C@@H](C)CC)C(C)C)[C@@H](C)O)C(C)C)C(C)C)[C@@H](C)CC)[C@@H](C)OC(=O)[C@H](C(C)C)NC1=O [Compound 71, [Phe(F5)^3, (4S)-MeHex^14]-KF]
answer-label: MET
